Reference for the values: PubChem BioAssay

Provide the recorded z-score for the entries that follow.
target: NADPH oxidase 5 (Homo sapiens); assay: compounds shifting NOX5 Amplex Red fluorescence – cell-based, HEK293-NOX5, NOX inhibitor project, primary screen (AID 1161); conditions: HEK293-NOX5, ionomycin, 45 min, higher = more signal
Form: value (number only, do not type unit).

Entry O=C(O)[C@@]1(CCS(=O)(=O)c2ccccc2)N=C(c2ccc(OCCCO)cc2)O[C@H]1c1ccccc1 needs its z-score filled in; supply it.
1.26

Entry COC(=O)[C@@]1(CCC(=O)OC(C)(C)C)N=C(c2ccc(OCCCO)cc2)O[C@H]1c1ccccc1 needs its z-score filled in; supply it.
-2.57

Entry C=C(CCCC)/C(=C/C[C@H](OC(C)=O)c1ccccc1OCCO)c1cnc2ccccc2c1 needs its z-score filled in; supply it.
-1.62

Entry CCCCCN1CC=CC23O[C@@H]4C=CCOC(=O)[C@@H]4[C@H]2C(=O)N(C(C)CO)[C@@H]3C1=O (stereo not given in full) needs its z-score filled in; supply it.
0.938

Entry CCOC(=O)[C@H]1C/C=C/C[C@H](C(=O)OCC)C(=O)O[C@H]2[C@@H](OC)O[C@H](CO)[C@@H](OC(=O)c3ccc(Br)cc3)[C@@H]2OC1=O needs its z-score filled in; supply it.
-1.24

Entry COC(=O)[C@@]1(Cc2ccc(OC)cc2)[C@H]2c3cc(C(=O)N4CCCC4)n(CCc4ccc(O)c(O)c4)c3C[C@H]2CN1C(=O)c1ccccc1 needs its z-score filled in; supply it.
-7.92

Entry C=CCN(Cc1ccccc1)C(=O)C(c1cccs1)N(C(=O)/C=C\C(=O)O)c1ccc(CCOCCO)cc1 (stereo not given) needs its z-score filled in; supply it.
-0.58

Entry C#CCN1[C@H](/C=C/C2CC2)[C@H](Cc2ccccc2)OC(=O)[C@@H]1Cc1ccccc1 needs its z-score filled in; supply it.
-1.98

Entry CCCCCCc1nc(-c2ccc(-c3ccc(Cl)c(Cl)c3)o2)cc2c1[Si](C(C)C)(C(C)C)O[C@H]2c1ccccc1 needs its z-score filled in; supply it.
-1.49

Entry O=C1O[C@H](c2ccccc2)[C@H](c2ccccc2)N2[C@H]1[C@@H](C(=O)N1CCN(c3ncccn3)CC1)[C@]1(C(=O)Nc3ccc(C#CC4=CCCCC4)cc31)[C@H]2c1ccccc1OCCO needs its z-score filled in; supply it.
1.01

Entry COc1ccc([Si](C)(C)[C@H]2[C@H](CC(=O)N3CCC[C@H]3CO)O[C@@]3(C(=O)N(Cc4cccc(N5CCOC5=O)c4)c4ccccc43)[C@@H]2C)cc1 needs its z-score filled in; supply it.
4.67

Entry COc1ccc([Si](C)(C)[C@H]2[C@H](CCO)O[C@@]3(C(=O)N(Cc4ccccc4)c4ccc(N5CCCCC5=O)cc43)[C@@H]2C)cc1 needs its z-score filled in; supply it.
1.81

Entry CC(C)Cc1ccc(CN2CC[C@@H](N)C2)cc1 needs its z-score filled in; supply it.
-1.29

Entry CCCC1(C(=O)OC)C=C2C(=C(c3ccccc3)C(=O)C2C)CN1 (stereo not given) needs its z-score filled in; supply it.
-2.63

Entry COCCOC(=O)N1C(=O)[C@@]2(c3cc(C#CC4=CCCCC4)ccc31)[C@H](c1ccc(OCCO)cc1)N1[C@H](c3ccccc3)[C@H](c3ccccc3)OC(=O)[C@H]1[C@@H]2C(=O)N1CCc2cc(OC)c(OC)cc2C1 needs its z-score filled in; supply it.
1.43

###

molecular target: E3 ubiquitin-protein ligase XIAP (Homo sapiens); assay: small molecules binding XIAP protein – biophysical, small-molecule microarray, fluorescence 635 nm, primary screen (AID 1181); details: higher = more signal;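 also: score merges 667 nm emission and signal to noise over triplicate slides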
Property name: composite z-score
Form: value (number only, do not type unit).

Please report composite z-score with E3 ubiquitin-protein ligase XIAP (Homo sapiens) for item O=C(O)[C@H](Cc1ccccc1)n1cc(-c2ccccc2)nn1 .
0.0812

Please report composite z-score with E3 ubiquitin-protein ligase XIAP (Homo sapiens) for item O=C1O[C@@H](c2ccccc2)[C@@H](c2ccccc2)N2[C@@H](c3ccc(OCCO)cc3)[C@]3(C(=O)Nc4ccc(C#CC5=CCCCC5)cc43)[C@@H](C(=O)N3CCCCCCC3)[C@H]12 .
0.642

Please report composite z-score with E3 ubiquitin-protein ligase XIAP (Homo sapiens) for item CCOC(=O)C1=CC[C@@H](c2ccccc2)N(S(=O)(=O)c2ccc(C)cc2)[C@H]1c1ccc(CC)cc1 .
-0.11

Please report composite z-score with E3 ubiquitin-protein ligase XIAP (Homo sapiens) for item O=C(CS)NCCCCCNC(=O)[C@@H]1C[C@@H]2C(=O)NCC(=O)N2[C@@H]1c1ccc(O)cc1 .
-0.0536

Please report composite z-score with E3 ubiquitin-protein ligase XIAP (Homo sapiens) for item CCOC(=O)C[C@H]1[C@H](OC(=O)c2ccc(-c3ccccc3)cc2)[C@@H](NC(=O)c2ccccc2)c2cc(OCCCO)ccc2N1C(=O)c1ccc2ccccc2n1 .
0.132

Please report composite z-score with E3 ubiquitin-protein ligase XIAP (Homo sapiens) for item CCCCN1CC=CC23O[C@@H]4C=CCCOC(=O)C4[C@H]2C(=O)N(CCCCCO)[C@@H]3C1=O (some centres not stated) .
0.0357

Please report composite z-score with E3 ubiquitin-protein ligase XIAP (Homo sapiens) for item O=C1NC(=O)C2C1C=CC(C(O)c1ccc(-c3ccccc3)s1)N2Nc1ccc(Cl)cc1Cl (configuration not stated) .
0.849

###

target: Calmodulin-1 (Homo sapiens); experiment: small molecules binding Ca-loaded calmodulin-1 – biochemical, small-molecule microarray, Cy5-labelled CALM1, plus calcium, artefact control for SMM control-protein annotation, profiling panel (AID 1112); conditions: Cy5-CALM1 binding fluorescence, higher = more signal;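 also: score merges spot fluorescence with signal to noise from triplicate slides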
Property name: composite z-score
Form: value (number only, do not type unit).

Entry C=CC[C@]1(C(=O)NCc2ccccc2)N=C(c2ccc(OCCCO)cc2)O[C@H]1c1ccccc1CN=[N+]=[N-] needs its composite z-score filled in; supply it.
0.358

Entry COc1ccc(-c2cc3c(c(Cc4ccccc4)n2)[Si](C(C)C)(C(C)C)OC3)cn1 needs its composite z-score filled in; supply it.
0.0817

Entry [N-]=[N+]=NCc1ccccc1[C@@H]1OC(c2ccc(OCCCO)cc2)=N[C@]1(CCS(=O)(=O)c1ccccc1)C(N)=O needs its composite z-score filled in; supply it.
0.242

Entry C=CCNC(=O)[C@H]1[C@@H]2C(=O)O[C@@H](c3ccccc3)[C@@H](c3ccccc3)N2[C@@H](c2ccc(OCCO)cc2)[C@]12C(=O)Nc1ccc(C#CCC(C(=O)OC)C(=O)OC)cc12 needs its composite z-score filled in; supply it.
0.478

###

experiment: compound effects on differentiated 3T3-L1 adipocyte viability – cell-based, 3T3-L1 adipocytes, calcein-AM fluorescence, 48 h, basal, profiling panel (AID 1163); settings: 3T3-L1 adipocytes viability, higher = more signal; also: test concentration not given here
Please note: z-score exactly at -0.3 is not fulfilled. Only values below -0.3 get fulfilled.

Decide: z-score of O=C1C2C=CC(C(O)c3ccc4c(c3)OCO4)N(Nc3ccc([N+](=O)[O-])cc3)C2C(=O)N1c1ccccc1 (stereo not drawn) strictly below -0.3?
fulfilled

Decide: z-score of COc1ccc([Si](C)(C)[C@@H]2[C@@H](CC(=O)N3Cc4ccccc4C[C@H]3CO)O[C@]3(C(=O)N(Cc4cccc(N5CCC5=O)c4)c4ccccc43)[C@H]2C)cc1 strictly below -0.3?
not fulfilled

Decide: z-score of COC(=O)[C@@]1(Cc2ccc(F)cc2)[C@H]2c3cc(C(=O)N(C)C)n(Cc4ccc(C)o4)c3C[C@H]2CN1C(=O)c1ccccc1 strictly below -0.3?
fulfilled

Decide: z-score of CN1CCC(CCCO)=CC1c1cccs1 (stereo not drawn) strictly below -0.3?
not fulfilled

Decide: z-score of O=C1[C@H]2C=C(I)[C@H](C[C@@H]2OCCCCO)[C@@]12CO2 strictly below -0.3?
fulfilled

Decide: z-score of COCCCNC(=O)[C@@H]1c2ccccc2C(=O)N(Cc2ccccc2)[C@H]1c1ccc(CO)cc1 strictly below -0.3?
not fulfilled

Decide: z-score of COCCCNC(=O)[C@@]1(Cc2ccccc2)N=C(c2ccc(OCCCO)cc2)O[C@H]1c1ccccc1CN=[N+]=[N-] strictly below -0.3?
fulfilled

Decide: z-score of NC(=O)[C@@]1(Cc2ccccc2)N=C(c2ccc(OCCCO)cc2)O[C@H]1c1ccccc1 strictly below -0.3?
not fulfilled

###

test: compound effects on multiple myeloma cell viability – MM1S, calcein-AM fluorescence, 48 h, basal, profiling panel (AID 1165); conditions: higher = more signal; also: test concentration not given here
Binary call on z-score: yes from -0.7 upward, no beneath that.

Test whether the compound COC(=O)[C@@]1(CCC(=O)OC(C)(C)C)N=C(c2ccc(OCCCO)cc2)O[C@H]1c1ccccc1 records z-score of -0.7 or higher.
no

Test whether the compound COC(=O)[C@@]1(Cc2ccc(OC)cc2)[C@H]2c3cc(C(=O)N4CCCC4)n(CCc4ccc(O)c(O)c4)c3C[C@H]2CN1C(=O)c1ccccc1 records z-score of -0.7 or higher.
no

Test whether the compound CCOC(=O)[C@H]1C/C=C/C[C@H](C(=O)OCC)C(=O)O[C@H]2[C@@H](OC)O[C@H](CO)[C@@H](OC(=O)c3ccc(Br)cc3)[C@@H]2OC1=O records z-score of -0.7 or higher.
no

Test whether the compound O=C1NC(=O)C2C1C=CC(C(O)c1ccc(I)cc1)N2Nc1ccccn1 (stereo unspecified) records z-score of -0.7 or higher.
yes

Test whether the compound CN(C)C(=O)[C@]1(Cc2ccccc2)N=C(c2ccc(OCCCO)cc2)O[C@@H]1c1ccccc1N=[N+]=[N-] records z-score of -0.7 or higher.
no

Test whether the compound CC(C)CNC(=O)[C@@]1(Cc2ccccc2I)c2ccccc2C(=O)N(Cc2ccccc2C(F)(F)F)[C@H]1c1ccc(CO)cc1 records z-score of -0.7 or higher.
no
